PROTOCOL SUMMARY: Lipophilicity (logkw) by reversed-phase chromatography (RP-HPLC)
Format: physicochemical
CONDITION LABEL: extrapolated to pure water
Experimental: The main goal of the synthetic part was the synthesis of new derivatives of dicarboximides with decreased lipophilicity in comparison to the lead compounds, i.e., Ia–Ie and II. […] The lipophilicity of new derivatives was calculated using the Osiris Property Explorer program. For some compounds, lipophilicity was determined experimentally by a reversed-phase chromatography (detailed description is given in Materials and Methods and in the Supplementary Data, Table S2). […]
In this section we review reported logkw (Experimental) values for a set of compounds.
The response must contain the number and no unit.

Examples from the recorded data:
# COMPOUND, logkw (Experimental)
data = [
    ("CCN(CC)CC(O)CN1C(=O)C2C(C1=O)C1(CC)C(=O)C2(CC)C(c2ccccc2)=C1c1ccccc1 (centres unmarked)", 5.10),
    ("CCC12C(=O)C(CC)(C(c3ccccc3)=C1c1ccccc1)C1C(=O)N(CCCN(C)C)C(=O)C12 (centres unmarked)", 5.05),
    ("CCN(CC)CC(O)CN1C(=O)C2C(C1=O)C1(C)C(=O)C2(C)C(c2ccccc2)=C1c1ccccc1 (centres unmarked)", 4.87),
    ("CCN(CC)CCN1C(=O)C2C(C1=O)C1(CC)C(=O)C2(CC)C(c2ccccc2)=C1c1ccccc1 (centres unmarked)", 5.09),
    ("CCC12C(=O)C(CC)(C(c3ccccc3)=C1c1ccccc1)C1C(=O)N(CC(O)CN3CCOCC3)C(=O)C12 (centres unmarked)", 4.98),
]

Reported logkw (Experimental), compound CCC12C(=O)C(CC)(C(c3ccccc3)=C1c1ccccc1)C1C(=O)N(CCN(C)C)C(=O)C12 (centres unmarked) : ____
4.94

For CCNCC(O)CN1C(=O)C2C(C1=O)C1(CC)C(=O)C2(CC)C(c2ccccc2)=C1c1ccccc1 (centres unmarked) then?
5.08

Please answer likewise for CC(C)(C)NCC(O)CN1C(=O)C2C(C1=O)C1(C)C(=O)C2(C)C(c2ccccc2)=C1c1ccccc1 (centres unmarked)
4.91
